Documented pIC50 across a set of compounds
Target: IGF1R (Homo sapiens, UniProt P08069)
Sequence (P08069 31-1367): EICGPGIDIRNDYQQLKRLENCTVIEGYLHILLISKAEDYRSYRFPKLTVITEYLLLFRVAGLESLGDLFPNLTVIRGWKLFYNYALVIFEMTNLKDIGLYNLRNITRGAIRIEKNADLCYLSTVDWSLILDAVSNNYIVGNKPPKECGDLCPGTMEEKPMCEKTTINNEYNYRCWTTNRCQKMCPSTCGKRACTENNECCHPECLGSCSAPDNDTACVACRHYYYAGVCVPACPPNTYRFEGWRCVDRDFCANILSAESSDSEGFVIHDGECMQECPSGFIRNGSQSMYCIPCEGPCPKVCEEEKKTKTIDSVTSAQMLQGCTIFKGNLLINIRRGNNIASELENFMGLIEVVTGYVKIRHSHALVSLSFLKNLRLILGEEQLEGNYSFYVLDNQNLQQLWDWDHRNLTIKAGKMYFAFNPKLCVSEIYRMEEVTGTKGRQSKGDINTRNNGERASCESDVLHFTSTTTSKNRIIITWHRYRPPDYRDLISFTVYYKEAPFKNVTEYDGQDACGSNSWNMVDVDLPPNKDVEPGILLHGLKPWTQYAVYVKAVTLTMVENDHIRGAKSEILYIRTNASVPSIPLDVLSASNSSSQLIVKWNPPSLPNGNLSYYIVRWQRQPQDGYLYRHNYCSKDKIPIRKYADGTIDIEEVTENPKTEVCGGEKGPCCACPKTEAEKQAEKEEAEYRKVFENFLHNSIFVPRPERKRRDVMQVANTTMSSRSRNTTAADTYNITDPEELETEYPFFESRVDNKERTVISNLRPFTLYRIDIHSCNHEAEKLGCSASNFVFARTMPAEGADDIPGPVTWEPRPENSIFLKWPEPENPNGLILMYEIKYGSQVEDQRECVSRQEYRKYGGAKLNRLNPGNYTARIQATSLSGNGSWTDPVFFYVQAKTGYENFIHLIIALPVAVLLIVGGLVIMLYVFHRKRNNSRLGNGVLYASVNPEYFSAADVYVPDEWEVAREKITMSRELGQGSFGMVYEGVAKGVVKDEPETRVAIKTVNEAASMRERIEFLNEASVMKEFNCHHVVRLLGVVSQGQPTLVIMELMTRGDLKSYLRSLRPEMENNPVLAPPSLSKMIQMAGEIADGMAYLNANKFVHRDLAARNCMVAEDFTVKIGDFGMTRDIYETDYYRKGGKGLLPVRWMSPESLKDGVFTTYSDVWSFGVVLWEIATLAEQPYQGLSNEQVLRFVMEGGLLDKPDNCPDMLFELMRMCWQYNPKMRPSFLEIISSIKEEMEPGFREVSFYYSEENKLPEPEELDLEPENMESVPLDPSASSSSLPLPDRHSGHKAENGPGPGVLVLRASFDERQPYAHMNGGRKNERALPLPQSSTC
Assay: Enzymatic kinase assay (filter-binding/flashplate)
Assay type: biochemical
pIC50 (log units): -log10 of the concentration in mol/L.

compound	parameter-measured	numeric-readout
Nc1ncnc2c1c(-c1cccc(OCC3CCCO3)c1F)cn2[C@H]1C[C@@H](CN2CCS(=O)(=O)CC2)C1 (mixture of isomers)	pIC50	8.38
Nc1ncnc2c1c(-c1cccc(OC[C@@H]3CCCO3)c1F)cn2C1CC2(CNC(=O)O2)C1 (stereo partly shown)	pIC50	7.89
[2H]C1([2H])C([2H])([2H])C2(COc3cccc(-c4cn([C@H]5C[C@@H](N6CC[S+]([O-])CC6)C5)c5ncnc(N)c45)c3F)OC1([2H])C([2H])([2H])C2([2H])[2H]	pIC50	7.82

// Nc1ncnc2c1c(-c1cc(OCC34CCC(CC3)O4)ccc1F)cn2[C@H]1C[C@@H](N2CC[S+]([O-])CC2)C1 (relative stereo) : pIC50 value = 8.08
